Experiment: Cytotoxicity in PHH natural infection assay (Cell Counting Kit-8)
Type: cell-based
Settings: HBV-infected primary human hepatocytes, CCK8
For each record, write down the corresponding CC50 at 144 h.

For the compound CCS(=O)(=O)c1ccc(C(=O)NC2CCC3(CC2)CCN(c2nc4cc(Cl)ccc4o2)CC3)o1 [Example 117] , report CC50 at 144 h.
> 100 µM

For the compound CS(=N)(=O)c1ccc(C(=O)NC2CC3(C2)CN(c2nc4cc(Cl)ccc4o2)C3)o1 (centres unmarked) [Example 40] , give its measured CC50 at 144 h value.
> 100 µM

Please list CC50 at 144 h recorded for the compound O=C(NC1CCC2(CC1)CN(c1nc3cc(Cl)ccc3o1)C2)c1ccc(C(F)(F)F)o1 [Example 70]
> 100 µM

Report measured CC50 at 144 h; entry is O=C(NC1CCC2(CC1)CCN(c1nc3cc(Cl)ccc3o1)CC2)C1CCC(F)(F)CC1 [Example 102]
> 100 µM

Please report CC50 at 144 h for the following compound: O=C(NC1CC2(C1)CN(c1nc3cc(Cl)ccc3o1)C2)c1ccc([S+]([O-])CC2CC2)o1 (centres unmarked) [Example 61]
96 µM

Determine from records and report CC50 at 144 h for CS(=O)(=O)c1cncc(C(=O)NCC2CCN(c3nc4cc(Cl)ccc4o3)CC2)c1 [Example 9]
> 10 µM

Please report CC50 at 144 h for the following compound: N=S(=O)(CC1CC1)c1ccc(C(=O)NC2CCC3(CC2)CCN(c2nc4cc(Cl)ccc4o2)CC3)o1 (centres unmarked) [Example 119]
85.8 µM

Indicate the recorded CC50 at 144 h value for this compound: CC(C)Oc1cc(C(=O)NC2CC3(C2)CN(c2nc4ccc(Cl)cc4o2)C3)ccn1 [Example 41]
> 10 µM

Give the value of CC50 at 144 h reported for the following: CN(C)C(=O)NC1CC2(C1)CN(c1nc3cc(Cl)ccc3o1)C2 [Example 23]
> 100 µM

Give reported CC50 at 144 h value for O=C(NC1CC2(C1)CN(c1nc3cc(Cl)ccc3o1)C2)c1ccnc(S(=O)(=O)C2CC2)c1 [Example 66]
84.2 µM

Supply measured CC50 at 144 h of CS(=O)(=O)c1cc(C(=O)NCC2CCN(c3nc4cc(Cl)ccc4o3)CC2)ccn1 [Example 5] in your reply.
> 10 µM

Identify measured CC50 at 144 h associated with CC(C)COC(=O)NC1CC2(C1)CN(c1nc3cc(Cl)ccc3o1)C2 [Example 22]
82.7 µM

Supply CC50 at 144 h value. Item: CS(=O)(=O)CC(=O)NC1CCC2(CC1)CCN(c1nc3cc(Cl)ccc3o1)CC2 [Example 81]
67.3 µM

Indicate the recorded CC50 at 144 h value for this compound: O=C(NCC1CCN(c2nc3cc(Cl)ccc3o2)CC1)c1ccc(C(F)(F)F)o1 [Example 7]
96.7 µM

Output measured CC50 at 144 h for this item: O=C(NC1CCC2(CCN(c3nc4cc(Cl)ccc4o3)C2)C1)c1ccc(C(F)(F)F)o1 (centres unmarked) [Example 75]
91.2 µM

Return the recorded CC50 at 144 h value; entry: O=C(NCC1CCN(c2nc3cc(Cl)ccc3o2)C1)c1ccnc(S(=O)(=O)C2CC2)c1 (centres unmarked) [Example 11]
> 10 µM

Read the entry CC(C)C[S+]([O-])c1ccc(C(=O)NC2CC3(C2)CN(c2nc4cc(Cl)ccc4o2)C3)o1 (centres unmarked) [Example 62] and write its reported CC50 at 144 h.
77.4 µM
